Source: PubChem BioAssay AID1996

Give solubility kinetic for every item shown.
# condition notes: buffer; pH 7.4; 200.0 µM
Hi! Could you send only the number? It should be in µg/mL, unit omitted.

Entry under test: Cn1c(=O)n(CCc2ccccc2)c2ccccc21 . Its solubility kinetic was 29.2

Entry under test: COC(=O)c1ccc(C(=O)OC)c(NC(=O)C(C)(C)C)c1 . Its solubility kinetic was 3.9

Entry under test: COCc1cc(C)[nH]c(=O)c1C(=O)NC12CC3CC(CC(C3)C1)C2 . Its solubility kinetic was 9.6

Entry under test: CC(=O)NCCc1ccc(C(=O)COC(=O)C2CCCCC2)cc1 . Its solubility kinetic was 33.4

Entry under test: C#CCOc1ccc(/C=C2/C(=O)ON=C2C)cc1Cl . Its solubility kinetic was 32.9

Entry under test: COc1ccc(C(=O)/C=C/Nc2ccccn2)c(OC)c1 . Its solubility kinetic was 4.2

Entry under test: Cc1ccnc(NC(=O)c2ccc(Cl)c(NC(=O)c3ccccc3C)c2)c1 . Its solubility kinetic was 1

Entry under test: CCOc1ccc(Cc2c(C)[nH]c3ccc(C(=O)O)cc3c2=S)cc1 . Its solubility kinetic was 36.2

Entry under test: CC(=O)c1cn(Cc2ccc(F)cc2)c2ccccc12 . Its solubility kinetic was 1.9

Entry under test: Cc1ccc(C(=O)NCc2ccc3c(c2)CCO3)cc1C . Its solubility kinetic was 31.2

* * *

# condition notes: buffer; pH 7.4; 200.0 µM
reported endpoint: log10 solubility kinetic (log10 of the value in µg/mL)
Transform log10 | Measure solubility kinetic | Unit µg/mL

Entry under test: N#Cc1ccc(OCC(O)CS(=O)(=O)c2ccccc2)cc1 (stereo not given) . Its log10 solubility kinetic was 1.67

Entry under test: N#Cc1ccc(COc2cccc3cccnc23)cc1 . Its log10 solubility kinetic was 1.51

Entry under test: CC1(C)NC(=O)N(CCCCOc2ccc(Cl)cc2C=O)C1=O . Its log10 solubility kinetic was 1.68

Entry under test: Cc1nc(Cl)sc1C(=O)Nc1cc(F)cc(F)c1 . Its log10 solubility kinetic was 1.32

Entry under test: Fc1ccccc1N1CCN(CCCc2ccccc2)CC1 . Its log10 solubility kinetic was 1.29

Entry under test: CCOc1ccc(NC(=O)C2CCN(S(C)(=O)=O)CC2)cc1 . Its log10 solubility kinetic was 1.31

Entry under test: c1csc(-c2cc(N3CCCCC3)c3ccccc3n2)c1 . Its log10 solubility kinetic was 0.04

Entry under test: CC(NC(=O)C(C)N1C(=O)c2cccc([N+](=O)[O-])c2C1=O)c1ccccc1 (stereo not given) . Its log10 solubility kinetic was 1.45

Entry under test: O=C(OCc1ccccc1Cl)c1cc([N+](=O)[O-])ccc1N1CCOCC1 . Its log10 solubility kinetic was 0.53

Entry under test: CCC1CCCCN1Cc1nc(Cc2ccccc2Cl)no1 (stereo not given) . Its log10 solubility kinetic was 1.21

Entry under test: COC(=O)c1cc(C(=O)c2cc(Cl)ccc2O)coc1=N . Its log10 solubility kinetic was 1.62

Entry under test: CS(=O)(=O)N1CCC(CO)(Cc2ccccc2C(F)(F)F)CC1 . Its log10 solubility kinetic was 1.69

* * *

Give solubility kinetic for every item shown.
# condition notes: buffer; pH 7.4; 200.0 µM
Hi! Could you send only the number? It should be in µg/mL, unit omitted.

Entry under test: O=c1cc(-c2ccccc2)c2cc3c(cc2[nH]1)OCCO3 . Its solubility kinetic was 1.4

Entry under test: O=C(CSCc1ccccc1)Nc1ccc(F)cc1F . Its solubility kinetic was 41

Entry under test: COc1ccccc1C(C)NC(=O)CCOc1cccc(C)c1 (configuration not stated) . Its solubility kinetic was 2.4

Entry under test: COc1ccccc1NC(=O)CCCCC(=O)Nc1ccccc1OC . Its solubility kinetic was 41.8

Entry under test: N#Cc1ccc2c(c1)NC(=O)C1CCCN21 (configuration not stated) . Its solubility kinetic was 27.8

Entry under test: Cc1cc(C)c2nc(N3CCOCC3)c(C#N)cc2c1 . Its solubility kinetic was 0.2
